The reported numbers originate from PubChem BioAssay (NCATS).

# experimental-details: Primary qHTS for inhibitors of nuclear receptor binding SET domain protein 2 (NSD2) in an isogenic RCH-ACV NSD2 p.E1099K mutant (9B) (AID 1645876); also: nearly all actives have a fitted effect of over 70% in size
# particulars: RCH-ACV (leukaemia line) NSD2 E1099K (9B) viability, CellTiter-Glo, 72 h; series mostly up to 44.9 µM
Results filed as inconclusive are left out. The source made the active and inactive calls. Calls follow the shape of the dose curve; as a rule, active = well fitted inhibition curve with a large enough effect; inconclusive = small, poorly fitted or top-dose-only effect; inactive = flat fitted curve, though single readings scatter.
Possible outcomes: active, inactive

>>> group("Cc1cc(Nc2cc(N3CCN(C)CC3)nc(Sc3ccc(NC(=O)C4CC4)cc3)n2)n[nH]1")
"active"
>>> group("O=C(NCCS(=O)(=O)c1ccc(C(F)(F)F)cn1)c1ccc(Cl)cc1")
"inactive"
>>> group("CN[C@H]1CCc2cc(OC)c(OC)c(OC)c2-c2ccc(OC)c(=O)cc21")
"active"
>>> group("Nc1ncnc2c1c(-c1cccc(OCc3ccccc3)c1)cn2C1CC(CN2CCCC2)C1 (stereo not given)")
"active"
>>> group("Nc1nccc(Oc2ccc(NC(=O)c3c[nH]cc(-c4ccc(F)cc4)c3=O)cc2F)c1Cl")
"active"
>>> group("C=C1C(=CC=C2CCC[C@]3(C)[C@@H]([C@H](C)C=C[C@H](C)C(C)C)CC[C@@H]23)C[C@@H](O)C[C@@H]1O")
"inactive"
>>> group("O=c1[nH]nc(Sc2ncc([N+](=O)[O-])s2)n1-c1ccc2c(c1)OCCO2")
"active"
>>> group("CN1CCN(c2cc(C(=O)Nc3ccc4c(c3)-c3c(c(C(N)=O)nn3-c3ccc(F)cc3)CC4)c(Cl)cn2)CC1")
"active"
>>> group("Cc1ccc2nc(NC(=O)CSc3nc4c(c(=O)n3-c3ccccc3)SCC4)sc2c1")
"inactive"
>>> group("C=CC(=O)Nc1cc2c(Nc3ccc(F)c(Cl)c3)ncnc2cc1C#CC(C)(C)N1CCN(C)CC1")
"active"
>>> group("CC(C)c1ccccc1Cc1cc(C(=O)Nc2ccc(S(=O)(=O)c3ccccc3C(C)(C)C)cc2)c(O)c(O)c1O")
"active"
>>> group("NC1(Cc2ccc(Cl)cc2)CCN(c2ncnc3[nH]ccc23)CC1")
"active"
>>> group("Cc1ccc(-c2ncn(-c3ccc(Nc4nccc(-c5cccc(N6CCOCC6)c5)n4)cc3)n2)cn1")
"active"
>>> group("CC(C)(C)c1cnc(CSc2cnc(NC(=O)C3CCNCC3)s2)o1")
"active"
>>> group("CC(C)C[C@H](NC(=O)CNC(=O)c1cc(Cl)ccc1Cl)B(O)O")
"active"
